Please go through the items and note down their EC50.
Target: recombinant SARS-CoV Spike protein (RBD, His tag) (SARS-CoV, UniProt P59594 306-527)
Assay: iQue flow cytometry, antigen-coated beads

Query: Fill in the blank: the reported EC50 of NI-607.532_B6 (antibody, V domains shown) VH: QVQLVQSGAEVKKPGASVKVSCKASGYTFTSYDINWVRQATGQGLEWMGWMNPNSGNTGYAQKFQGRVTMTRNTSISTAYMELSSLRSEDTAVYYCARVVSLTGFFDYWGQGTLVTVSS VL: SYELTQPPSVSVAPGKTARITCGGNNIGSKNVHWYQQKPGQAPVLVVYDDSDRPSGIPERFSGSNSGNTATLTISRVEAGDEADYYCQVWDSSSDPWVFGGGTKLTVL is ____.
Reply: 4.2 nM

Query: Fill in the blank: the reported EC50 of NI-607.532_F3 (antibody, V domains shown) VH: EVQLVQSGAEVKKPGESLKISCKGFGYIFSNDWIGWVRQKPGKGLEWMGIIYPGDSDTRYSPSFRGQVTISADKSVSTAYLQWDSLKASDTAVYYCTRPRYTTMIVGSNPFDVWGQGTTVTVSS VL: QSVLTQPPSVSGAPGQRVTISCTGSSSNIGGGYDVHWYQKLPGTAPKLLIFDNDNRPSGVPDRFSGSKSDTSASLTITGLQAEDEADYFCQSYDSSLSGSGVVFGGGTKLTVL is ____.
Reply: 1.3 nM

Further cases:
Query: Fill in the blank: the reported EC50 of NI-607.529_B9 (antibody, V domains shown) VH: QVQLQESGPGLVKPSETLSLTCTVSGGSISSSSYYWGWIRQPPGKGLEWIGNIYYSGSTYYNPSLKSRVTISVDTSKNQFSLKLNSVTAADTAVYFCARLLWLRGSYYWGQGTLVTVSS VL: SYELTQPHSVSESPGKTVTISCTGSSGSIASNYVQWYQQRPGSAPTTVIYEDNQRPSGVPDRFSGSIDSSSNSASLTISGLKTEDEADYYCQSYDSSNWVFGGGTKLTVL is ____.
Reply: 20 nM
